experiment: chemical genetic growth profiling, strain panel (AID 1159580);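 further: tested at 20 µM; growth read once vehicle control cultures reached saturation at 30 °C; 1 = growth at the plate median or of vehicle wells; lower values mean less growth of the strain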; details: S. cerevisiae deletion strains, growth OD, locus YKL085W, strain MDH1 (second series), stronger effect = lower value
Hit rate of the full screen: of about 5,500 compounds, about 2,000 (36%) were called active. Not shown: some 18% with an inconclusive outcome. The list shows a part of the results.
measurement.type: normalized growth
Answers are plain numbers.

Below, 2 compounds whose answers are already recorded.
compound: CN(C(=O)CN(CCO)CC(=O)N(C)C(C)(C)Cc1ccccc1)C(C)(C)Cc1ccccc1
normalized growth: 0.971
//
compound: COc1cc(S(C)=O)ccc1-c1nc2ncccc2[nH]1 (stereo not drawn)
normalized growth: 1

In: Returns the measured normalized growth for the input compound. Input: CCN(CCCc1ccccc1)CCCc1ccccc1
Out: 1

----------
test: chemical genetic growth profiling, strain panel (AID 1159580); settings: S. cerevisiae deletion strains, growth OD, locus YLR342W, strain FKS1, stronger effect = lower value
Among all 5,500 compounds or so, about 2,000 (36%) were called active. About 18% were inconclusive and are not listed. The list shows a part of the results.
Task for the reader: assign each of the following molecules its reported normalized growth.
One number for each entry.

Would you mind giving normalized growth for every molecule in the list below?
1. CC(CCC(=O)O)[C@H]1CCC2C3CC[C@@H]4C[C@H](O)CC[C@]4(C)C3C[C@H](O)[C@@]21C (stereo partly drawn)
2. CC[C@H](CCC(C)[C@H]1CCC2C3CCC4C[C@@H](O)CC[C@]4(C)C3CC[C@@]21C)C(C)C (stereo partly drawn)
3. C[C@H](CCC(=O)O)[C@H]1CCC2C3C(CC[C@@]21C)[C@@]1(C)CC[C@@H](O)C[C@H]1C[C@H]3O (stereo partly drawn)

Out:
0.987
0.978
1

----------
assay: chemical genetic growth profiling, strain panel (AID 1159580); conditions: S. cerevisiae deletion strains, growth OD, locus YGL167C, strain pmr1, stronger effect = lower value
About 2,000 (36%) of roughly 5,500 compounds were called active. About 18% were inconclusive and are not listed. The list shows a part of the results.
measurement.type: normalized growth
Give bare numbers.

The cases that follow already have their normalized growth on record.
compound: COc1ccc(C(=O)N2CCCC2=O)cc1
measurement.type: normalized growth
recorded.number: 0.96
//
compound: O=c1cc(-c2ccccc2)oc2cccc(O)c12
measurement.type: normalized growth
recorded.number: 0.969
//
compound: O=[N+]([O-])c1cccc2cn[nH]c12
measurement.type: normalized growth
recorded.number: 0.998
//
compound: CO[C@]12C[C@@H](COC(=O)c3cncc(Br)c3)CN(C)[C@@H]1Cc1cn(C)c3cccc2c13
measurement.type: normalized growth
recorded.number: 0.996
//
compound: C[C@@H]1CC2C3C[C@H](F)C4=CC(=O)C=C[C@]4(C)[C@@]3(F)[C@@H](O)C[C@]2(C)[C@@]1(O)C(=O)COC(=O)C(C)(C)C (stereo partly specified)
measurement.type: normalized growth
recorded.number: 0.989

Consider the following items and state reported normalized growth for each.
1. O=c1cc(-c2ccccc2)oc2cc(O)c(O)cc12
2. C[C@@H]1CC2C3CCC4=CC(=O)C=C[C@]4(C)[C@@]3(F)[C@@H](O)C[C@]2(C)[C@H]1C(=O)CO (stereo partly specified)
3. O=c1cc(-c2ccccc2)oc2c(O)c(O)ccc12
4. CCOC(=O)[C@H](CCc1ccccc1)N[C@@H](C)C(=O)N1Cc2ccccc2C[C@H]1C(=O)O
5. CC(=O)Nc1ccccc1

Out:
[0.949, 0.996, 0.988, 1, 0.947]

Go through the items and report each one's normalized growth.
1. c1ccc2nc(N3CCNCC3)ccc2c1
2. Cc1cc(C)cc(OCC2CNC(=O)O2)c1 (stereo unspecified)
3. CN(CCC(N)CC(=O)N[C@H]1C=CC(n2ccc(N)nc2=O)O[C@@H]1C(=O)O)C(=N)N (stereo partly specified)
4. O=[N+]([O-])c1cccc2c(Br)[nH]nc12
5. Nc1ccncc1
6. Nc1cc(C(Cl)=C(Cl)Cl)c(S(N)(=O)=O)cc1S(N)(=O)=O

Out:
1.01
0.971
0.998
0.99
0.992
1.02

----------
Assign normalized growth to each entry below.
assay: chemical genetic growth profiling, strain panel (AID 1159580);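 further: tested at 20 µM; growth read once vehicle control cultures reached saturation at 30 °C; 1 = growth at the plate median or of vehicle wells; lower values mean less growth of the strain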; conditions: S. cerevisiae deletion strains, growth OD, locus YMR263W, strain SAP30, stronger effect = lower value
In all, about 5,500 compounds went through this assay and about 2,000 (36%) were called active. Not shown: some 18% with an inconclusive outcome. Some of the results follow.
One number for each entry.

molecule: CCC(=O)c1ccc2c(c1)N(CC(C)N(C)C)c1ccccc1S2 (stereo unspecified)
normalized growth: 0.973
//
molecule: OC1(c2ccc(Cl)cc2)CSc2nc3cc(C(F)(F)F)ccc3n21 (stereo unspecified)
normalized growth: 1.02
//
molecule: CSc1ccc2c(c1)N(CCC1CCCCN1C)c1ccccc1S2 (stereo unspecified)
normalized growth: 0.569
//
molecule: Cc1ccc(/C(N)=N\O)cc1F
normalized growth: 1
//
molecule: CC(=O)Nc1ccc(S(=O)(=O)NC2Cc3ccccc3C2)cc1
normalized growth: 0.994
//
molecule: Cc1nc2sccn2c(=O)c1CCN1CCC(=C(c2ccccc2)c2ccc(F)cc2)CC1
normalized growth: 0.992

Quick one: give me normalized growth for each item below, same order please.
1. NS(=O)(=O)c1cc2c(cc1Cl)NC(C1CC3C=CC1C3)NS2(=O)=O (stereo unspecified)
2. COc1ccc(C=C2C(=O)NC(=S)NC2=O)cc1Br
3. N[C@H](Cc1ccccc1)C(=O)O
4. NC(CCCP(=O)(O)O)C(=O)O (stereo unspecified)
5. O=c1[nH]cnc2[nH]ncc12
6. COc1c2ccoc2nc2c(OC)c(OCC(O)C(C)(C)O)ccc12 (stereo unspecified)
7. N/C(=N/O)c1csc(-c2ccc(F)cc2F)n1

Out:
1: 0.988; 2: 0.928; 3: 1.01; 4: 1; 5: 0.997; 6: 1.01; 7: 0.997

Report normalized growth for each item below.
1. Cc1ccc(OCc2nnc(SCC(=O)Nc3cccc4c3OCO4)n2-c2ccccc2)c2c1CCC2
2. O=C(O)Cc1cc(I)c(Oc2cc(I)c(O)c(I)c2)c(I)c1
3. CC1=C2[C@H]3OC(=O)[C@@H](C)[C@@H]3CC[C@@]2(C)C=CC1=O
4. NC(Cc1ccc(F)cc1)C(=O)O (stereo unspecified)
5. CC(CN1c2ccccc2Sc2ccccc21)N(C)C (stereo unspecified)
6. C[C@]12C=CC(=O)C=C1CCC1C3C[C@@H](O)[C@](O)(C(=O)CO)[C@@]3(C)C[C@H](O)[C@@]12F (stereo partly specified)
7. CC(CN(C)C)CN1c2ccccc2CCc2ccccc21 (stereo unspecified)
8. COc1ccc(-n2c(-c3ccc(C)cc3)csc2=N)cc1

Out:
1.01
0.944
1.02
1.01
0.999
1.01
1
1.03

----------
test: chemical genetic growth profiling, strain panel (AID 1159580);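 further: tested at 20 µM; growth read once vehicle control cultures reached saturation at 30 °C; 1 = growth at the plate median or of vehicle wells; lower values mean less growth of the strain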; conditions: S. cerevisiae deletion strains, growth OD, locus YOR080W, strain dia2, stronger effect = lower value
About 2,000 (36%) of roughly 5,500 compounds were called active. Another 18% or so got no clear call; they are omitted. The list shows a part of the results.
measurement.type: normalized growth
Answers are plain numbers.

Some entries whose results are on file:
compound: Nc1cc(C(Cl)=C(Cl)Cl)c(S(N)(=O)=O)cc1S(N)(=O)=O
recorded.number: 1.02

compound: CC1(C)C(O)CC(O)C2(C)C1CC(O)C1(C)C2CCC2(C)C(c3ccoc3)OC(=O)C3OC321 (stereo unspecified)
recorded.number: 0.983

compound: C/C=C/C(=O)N(CC)c1ccccc1C
recorded.number: 1

compound: CNC(=O)Oc1ccc2c(c1)[C@]1(C)CCN(C)[C@@H]1N2C
recorded.number: 1.02

compound: COc1c(Cl)ccc(Cl)c1C(=O)O
recorded.number: 0.969

compound: COc1cc([C@@H]2c3cc4c(cc3[C@H](OC(C)=O)[C@H]3COC(=O)[C@@H]23)OCO4)cc(OC)c1OC
recorded.number: 1

Could I get normalized growth for every one of these entries?
1. C=Cc1c(C)c2[n-]c1=Cc1[n-]c(c(CC)c1C)C=c1[n-]c3c(c1C)C(=O)C(C(=O)[O-])C=3c1[n-]c(c(C)c1CCC(=O)[O-])C=2.[Cu] (stereo unspecified)
2. NCCOB(c1ccccc1)c1ccccc1
3. Clc1ccc2c(c1)C(N1CCNCC1)=Nc1ccccc1O2
4. CN(CCC(N)CC(=O)N[C@H]1C=CC(n2ccc(N)nc2=O)O[C@@H]1C(=O)O)C(=N)N (stereo partly specified)
5. Nc1ccn(C2O[C@H](CO)[C@@H](O)[C@H]2O)c(=O)n1 (stereo partly specified)

Out:
1.06
1.02
0.989
0.776
1

----------
For each entry below, report its normalized growth value.
assay: chemical genetic growth profiling, strain panel (AID 1159580);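 further: tested at 20 µM; growth read once vehicle control cultures reached saturation at 30 °C; 1 = growth at the plate median or of vehicle wells; lower values mean less growth of the strain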; conditions: S. cerevisiae deletion strains, growth OD, locus YML016C, strain PPZ1, stronger effect = lower value
About 2,000 (36%) of roughly 5,500 compounds were called active. Inconclusive results (about 18%) are left out. The list shows a part of the results.
Numbers only.

Solved cases (7 shown):
molecule: CC(CCC(=O)O)[C@H]1CCC2C3C(C[C@H](O)[C@@]21C)[C@@]1(C)CC[C@@H](O)C[C@H]1C[C@H]3O (stereo partly drawn)
normalized growth: 1.03
--
molecule: COc1cc([C@@H]2c3cc4c(cc3[C@H](OC(C)=O)[C@H]3COC(=O)[C@@H]23)OCO4)cc(OC)c1OC
normalized growth: 1.01
--
molecule: CC(C)CCCC(C)C1CCC2C3CC[C@H]4CCCC[C@]4(C)C3CC[C@]12C (stereo partly drawn)
normalized growth: 0.986
--
molecule: COC(=O)CCCOc1ccc(Cl)cc1Cl
normalized growth: 0.988
--
molecule: O=C(Nc1ccccc1)Nc1ccccc1
normalized growth: 0.991
--
molecule: NCC(CC(=O)O)c1ccc(Cl)cc1 (stereo not drawn)
normalized growth: 1.02
--
molecule: CO[C@]12C[C@@H](COC(=O)c3cncc(Br)c3)CN(C)[C@@H]1Cc1cn(C)c3cccc2c13
normalized growth: 1.01

Now examine the next entry.
In: Field request: normalized growth | item: O=C(O)CCCOc1ccc(Cl)cc1Cl
Out: 0.999
